B1: LYSMD4 (parent)
chain: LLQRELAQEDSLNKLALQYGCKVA

- Variants of: B1
- method.summary: protein stability index of a GFP-peptide fusion (GPS, HEK-293T) (PSI 1-6); higher = more stable;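 also: lentivirally expressed fusions sorted by FACS into six bins by GFP to DsRed ratio, PSI derived from sequencing read proportions per bin multiplied by bin number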
- details: c terminus: a fixed tail appended
Overview of reported protein stability index across a group of variants:
Answer as a number with no unit attached.

# lookup: protein stability index of `A24D`
2.37
